# Tested on: U2OS
# protocolNotes: cell viability relative to DMSO; higher = less toxic
# conditionParameters: 72 h; 10000 nM
measureName: cell viability (%)
The figure you give is taken to be in %; do not add the unit.

May I ask what cell viability has been recorded for C[C@@H](O[C@H]1OCCN(Cc2nn(P(=O)(O)O)c(=O)[nH]2)[C@H]1c1ccc(F)cc1)c1cc(C(F)(F)F)cc(C(F)(F)F)c1 [fosaprepitant-dimeglumine] ?
86.4

Quick one: C/C=C(/C)C(=O)O[C@H]1C(C)=C[C@]23C(=O)[C@@H](C=C(CO)[C@@H](O)[C@]12O)[C@H]1[C@@H](C[C@H]3C)C1(C)C [ingenol-mebutate]
93.4

One more compound: COCCCOc1cc(C[C@@H](C[C@H](N)[C@@H](O)C[C@H](C(=O)NCC(C)(C)C(N)=O)C(C)C)C(C)C)ccc1OC [aliskiren-hemifumarate]
93.7

How about this compound: Cc1c(NC(=O)c2cc3c(s2)CCCC3)cccc1-c1cn(C)c(=O)c(Nc2ccc(C3C(=O)N(C)CCN3C)cc2)n1 (stereo in doubt)
92.7

How about `CCCCCCCCCCCCCCSCC(=O)O` ?
100

Okay, and `CN1C(=O)C[C@@H](C(=O)N[C@@H](Cc2c[nH]cn2)C(=O)N2CCC[C@H]2C(N)=O)NC1=O` ?
101

Now the same for `O=C(OCCN1CCOCC1)C1(c2ccccc2)CCCCC1`
97.4

====

# System: Calu-3
# protocolNotes: cell viability relative to DMSO; higher = less toxic
# conditionParameters: 72 h; 1000 nM
measureName: cell viability (%)
Output spec: scalar in %, unitless text.

Any idea what cell viability was measured for C[C@H](c1ccc2ccc(OC3CCC(C(F)(F)F)CC3)c(C(F)(F)F)c2c1)N1C2CCC1CC(C(=O)O)C2 (some centres undefined) ?
106

Same question for `O=c1c(O)c(-c2ccc(O)c(O)c2)oc2cc(O)cc(O)c12` please.
92.8

Please answer likewise for CCCCc1ccc(C(N)=O)nc1 [bupicomide]
84.7

// repeat for C[C@@H](O[C@H]1OCCN(Cc2nn(P(=O)(O)O)c(=O)[nH]2)[C@H]1c1ccc(F)cc1)c1cc(C(F)(F)F)cc(C(F)(F)F)c1 [fosaprepitant-dimeglumine] and report
93.8

====

Please go through the items and note down their cell viability.
# Tested on: Caco-2
# protocolNotes: cell viability relative to DMSO; higher = less toxic
# conditionParameters: 72 h; 10000 nM
Numbers only; they are read as %.

Form field: reported cell viability of `CC(C)n1nnc2cc(C(=O)O)ccc21`
95.2

And `CC1(C)Oc2ccc(C#N)cc2[C@@H](OC2=CC(=O)CC2)[C@@H]1O` ?
103

Please do the same for COCCCOc1cc(C[C@@H](C[C@H](N)[C@@H](O)C[C@H](C(=O)NCC(C)(C)C(N)=O)C(C)C)C(C)C)ccc1OC [aliskiren-hemifumarate] as well.
100

Okay, and `CCN[C@@H](C)Cc1cccc(C(F)(F)F)c1` ?
106

====

# Test system: HepG2
# protocolNotes: cell viability relative to DMSO; higher = less toxic
# conditionParameters: 72 h; 10000 nM
Mark Y only when cell viability stays strictly below 90%. Values equal to the cut-off are N.

# strict comparison: is reported cell viability < 90%? input = O=C(N/N=C/c1ccc([N+](=O)[O-])o1)c1cc([N+](=O)[O-])cc([N+](=O)[O-])c1O [nifursol]
Y

Here is the next compound: CCCC(=O)C1CCN(c2ncnc3c2CN(C(=O)c2ccc(-c4ccccc4)cc2)CC3)CC1 [PK-THPP]
N

Same read-out for CC(=O)N[C@@H](CCC(N)=O)C(=O)O [aceglutamide] ?
Y

====

# Tested on: Vero E6
# protocolNotes: cell viability relative to DMSO; higher = less toxic
# conditionParameters: 72 h; 1000 nM
Kindly supply the reported cell viability values for the records listed here.
Number in %, nothing else.

Any idea what its cell viability is? The molecule is `CN(C)Cc1ccc(-c2nc3cccc4c3n2CCNC4=O)cc1`
96

Repeat with CNC1CC(N)C(O)C(OC2OC(CO)C(O)C3OC4(OC(C(N)CO)C(O)C(O)C4O)OC23)C1O (centres undefined)
91.5

Another molecule to check: `CC(C)NC[C@@H](C(=O)N1CCN(c2ncnc3c2[C@H](C)C[C@H]3O)CC1)c1ccc(Cl)cc1`
101

Similarly, NC(=O)OCC(O)COc1ccc(Cl)cc1 (centres undefined) [chlorphensin-carbamate] ?
96.5

And what about the molecule `CC(=O)NCC(=O)N[C@H](CCC(=O)O)C(=O)O` ?
97

Same question, `CCCCCCCCCCCCCCSCC(=O)O` this time
99.2

Okay, and `Cc1cc(SCc2sc(-c3ccc(C(F)(F)F)cc3)nc2C)ccc1OCC(=O)O` ?
97.6

Follow-up item: `CN(C)CCCn1cc(C2=C(c3c[nH]c4ccccc34)C(=O)NC2=O)c2ccccc21`
96.3

Try the molecule `C=C[C@H]1CN2CC[C@H]1C[C@H]2[C@H](O)c1ccnc2ccccc12`
95.5

====

# System: Vero E6
# protocolNotes: cell viability relative to DMSO; higher = less toxic
# conditionParameters: 72 h; 1 nM
measureName: cell viability (%)
Write the number in % without appending the unit.

Any idea what cell viability came out for CC(CN1c2ccccc2Sc2ccccc21)N(C)C (centres undefined) on Vero E6?
101

Queued: `CCCN(CCC)S(=O)(=O)c1ccc(C(=O)O)cc1`
102

Proceed to CC[C@@H](C)c1ccc(NC(=O)Cn2cnc3c2c(=O)n(C)c(=O)n3C)cc1 (racemic)
96

Okay, and CC(=O)NO [acetohydroxamic-acid] ?
97.6

Also NC(=O)CCCCC1CCSS1 (centres undefined) [lipoamide] ?
103

Next: `CCN(CC)CCCCC1CCN(CC(=O)N2c3ccccc3C(=O)Nc3cccnc32)CC1`
102

Same question for `CCC(=O)O[C@@](Cc1ccccc1)(c1ccccc1)[C@@H](C)CN(C)C` please.
100

Record: CC(CC(C(N)=O)(c1ccccc1)c1ccccc1)N(C)C (centres undefined) [aminopentamide]
95.9

Would you mind doing C#C[C@]1(OC(C)=O)CC[C@H]2[C@@H]3CCC4=CC(=NO)CC[C@@H]4[C@H]3CC[C@@]21CC (mixture of isomers) [norgestimate] as well?
99

Another compound: `C[C@@H](N)[C@@H](O)c1ccccc1`
101

Follow-up entry: `Cc1cc(OCC(=O)O)cc(C)c1Cc1ccc(O)c(C(C)C)c1`
102

Same for `COc1cc(Nc2nc3ccccc3nc2NS(=O)(=O)c2ccc(NC(=O)c3ccc(C)c(OC)c3)cc2)cc(OC)c1`
99.9

Would you kindly repeat that for `CC(=O)N[C@@H](Cc1c[nH]c2ccccc12)C(=O)OCc1cc(C(F)(F)F)cc(C(F)(F)F)c1` ?
89.1

Next compound: Cc1cc(CC(=O)O)n(C)c1C(=O)c1ccc(Cl)cc1 [zomepirac]
105

Could you do the same for `CN1CCN(CCCN2c3ccccc3Sc3ccc(C(F)(F)F)cc32)CC1` , please?
95.5

Try COCC(=O)Nc1c(I)c(C(=O)NCC(O)CO)c(I)c(C(=O)N(C)CC(O)CO)c1I (centres undefined) [iopromide] next.
100

Next up: Cc1c(NC(=O)c2cc3c(s2)CCCC3)cccc1-c1cn(C)c(=O)c(Nc2ccc(C3C(=O)N(C)CCN3C)cc2)n1 (stereo in doubt)
105

Queued: `Clc1ccc(Nc2nnc(Cc3ccncc3)c3ccccc23)cc1`
95.9

Repeat for the following compound: C[C@]12CCC(=O)C[C@@H]1CC[C@@H]1[C@@H]2CC[C@]2(C)[C@@H](O)CC[C@@H]12 [Dihydrotestosterone]
106

`Cc1c(-c2ccnn2C)cc(C(=O)NCc2ccc(S(C)(=O)=O)cn2)c(=O)n1-c1cccc(C(F)(F)F)c1` , same question.
97.3

Proceed to `O=C(Cn1ccnc1[N+](=O)[O-])NCCO`
103

For `N=C(N)Nc1ccc(C(=O)Oc2ccc3cc(C(=N)N)ccc3c2)cc1` then?
99.7

Okay, and `O=C1c2ccccc2-n2c1nc1ccccc1c2=O` ?
104

How about `CCN1CCN(C(=O)N[C@@H](C(=O)N[C@@H]2C(=O)N3C(C(=O)O)=C(CSc4nnnn4C)CS[C@H]23)c2ccc(O)cc2)C(=O)C1=O` ?
96.7

Similarly, `Cc1c(C(=O)Nc2ccc(N3CCC(N4CCOCC4)CC3)c(C#N)c2)cnn1-c1ccc(Cl)cc1` ?
104

// repeat for `N=C(N)SCc1ccc(B(O)O)cc1` and report
108

Same question for `O[C@H]1[C@H](O)[C@@H](O)CN2CC[C@H](O)[C@H]12` please.
97.4

Queued: `CN(C)CCCn1cc(C2=C(c3c[nH]c4ccccc34)C(=O)NC2=O)c2ccccc21`
101

Can you check `C=C1CC[C@H](O)C/C1=C/C=C1\CCC[C@]2(C)[C@@H]([C@H](C)/C=C/[C@H](C)C(C)C)CC[C@@H]12` next?
102

Please give the result for `O=C1c2ccccc2-c2n[nH]c3cccc1c23` too.
94.7

Okay, and `Cc1cnc(C(=O)O)c[n+]1[O-]` ?
98.6

Next compound up: `CC/C=C(\C(=O)N[C@@H]1C(=O)N2C(C(=O)OCOC(=O)C(C)(C)C)=C(COC(N)=O)CS[C@H]12)c1csc(N)n1`
109

Do the same for CNC1CC(N)C(O)C(OC2OC(CO)C(O)C3OC4(OC(C(N)CO)C(O)C(O)C4O)OC23)C1O (centres undefined) please
95.9

Can you check `NCCCC[C@H](NC(=O)[C@@H](Cc1cc(Br)c(O)c(Br)c1)NC(=O)N1CCC(N2Cc3ccccc3NC2=O)CC1)C(=O)N1CCN(c2ccncc2)CC1` next?
102
